tested on: Lolium multiflorum; assay: Further glasshouse test versus other ACCase-inhibiting herbicides, Table B2-1; assay type: in vivo; conditions: biotype C2088R; 240 g/ha; 21 days after application
metric_name: visual damage

Completed entries (count: 4):
| compound | visual damage |
| --- | --- |
| CCCC(=NOCC)C1=C(O)CC(C2CCCSC2)CC1=O (centres unmarked) [Cycloxydim, cycloxydim] | 0% |
| CCSC(C)CC1CC(=O)C(/C(CC)=N/OC/C=C/Cl)=C(O)C1 (centres unmarked) [Clethodim, clethodim] | 100% |
| CCc1cc(C)cc(CC)c1-c1c(OC(=O)C(C)(C)C)n2n(c1=O)CCOCC2 [Pinoxaden, pinoxaden] | 30% |
| CC#Cc1ccc(C2=C(OC(=O)OC)C3CCC(C3)C2=O)c(OC)c1 (centres unmarked) [Compound Ic] | 100% |

We now examine a further compound.
Lookup: For Lolium multiflorum, give the measured visual damage of the entry C#CCOC(=O)[C@@H](C)Oc1ccc(Oc2ncc(Cl)cc2F)cc1 [Clodinafop-propargyl, clodinafop-propargyl]
Found: 7%
